target: Sterol O-acyltransferase 1 (Homo sapiens) (UniProt P35610)
Sequence (whole entry): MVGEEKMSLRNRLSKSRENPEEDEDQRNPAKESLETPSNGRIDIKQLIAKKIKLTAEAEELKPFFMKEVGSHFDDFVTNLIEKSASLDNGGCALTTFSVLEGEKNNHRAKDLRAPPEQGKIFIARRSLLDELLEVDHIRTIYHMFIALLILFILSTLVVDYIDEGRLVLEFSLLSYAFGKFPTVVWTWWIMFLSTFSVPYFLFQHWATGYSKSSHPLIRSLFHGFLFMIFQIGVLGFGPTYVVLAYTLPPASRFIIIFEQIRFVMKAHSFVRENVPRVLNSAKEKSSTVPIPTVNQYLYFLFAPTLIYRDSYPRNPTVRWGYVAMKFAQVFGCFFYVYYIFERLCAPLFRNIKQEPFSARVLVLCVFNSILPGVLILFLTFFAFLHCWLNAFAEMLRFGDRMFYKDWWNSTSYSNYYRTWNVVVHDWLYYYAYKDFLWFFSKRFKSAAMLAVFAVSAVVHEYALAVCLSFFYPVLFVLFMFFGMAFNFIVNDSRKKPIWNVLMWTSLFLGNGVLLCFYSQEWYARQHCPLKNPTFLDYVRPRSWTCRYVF
method: Inhibition of human ACAT1 expressed in CHO cells at 5 uM using [14C]oleoyl-CoA as substrate
Type: cell-based
Active and inactive are the calls of the source. No cut-off for these calls is given here.
observed-property: inhibition

**Query** Given "O=C1NCCc2ccc(O)c(c2)Oc2c(Br)cc(cc2Br)CCNC(=O)/C(=N/O)Cc2cc(Br)c(O)c(c2)Oc2c(Br)cc(cc2Br)C/C1=N\O" , respond with its inhibition.
**Result** 61%

**Query** Give recorded inhibition. "O=C1NCCc2ccc(O)c(c2)Oc2ccc(cc2Br)CCNC(=O)/C(=N/O)Cc2cc(Br)c(O)c(c2)Oc2c(Br)cc(cc2Br)C/C1=N\O"
**Result** inactive

**Query** Given the compound "O=C1NCCc2cc(Br)c(O)c(c2)Oc2c(Br)cc(cc2Br)CCNC(=O)/C(=N/O)Cc2cc(Br)c(O)c(c2)Oc2c(Br)cc(cc2Br)C/C1=N\O" , write its reported inhibition.
**Result** 82%

**Query** Retrieve inhibition measured for "O=C1NCCc2cc(Br)c(O)c(c2)Oc2c(Br)cc(cc2Br)[C@H](O)CNC(=O)/C(=N/O)Cc2cc(Br)c(O)c(c2)Oc2ccc(cc2Br)C/C1=N\O" and print it.
**Result** inactive
